Experiment: yeast display, Sf9 membrane polyspecificity reagent, FACS + sequencing; frameworks hold sequencing errors

record sequence | polyreactivity (PSR sort gate)
QVQLEESGGGLVQAGGSLRLSCAASGGILVFYALGWYRQAPGTERELVAAINVSGRSTYYADSVKGRFTISRDNAKNTVYVQMNSLKPEDTAVYYCAADYYYVWYDYWGQGTQVTVSS | low polyreactivity
QVQLVESGGGLVQAGGSVRLSCAASGRIFGWYAMGCYRPAPGKERELVAAIPWSGDSTYYADSVKGRFTISRDNAKNTVYLQMNSLKPEDTAVYYCNKVRGYPRVAGYYSWGQGTQVTVSS | low polyreactivity
QVQLVESGGCLVQAGGSLRLSCAASGIIFQGYVMGWYRQAPGKEREFVAAISRSGGTTFYADSVKGRFTISRDNAKNTVYLQMNSLKPVDTAVYSCNRARLGRPGYDYWGQGTQVTVTS | high polyreactivity
QVQLVDSRGGLVQAGGSLRLSCAASGLTFGPYAMGRYRQAPGKEREFVAAITWRGGRTNYADSVKGRFTMSRDNAKNTVYLQMNSLKPEDTAVYYCNAVISPHQWIRGGDSWGQGTQVTVSS | low polyreactivity
QVQLVESGGGLVQAGGSLRLSCAASGIIFDGNVMGWYRQAPGKEREFVASISISGGSTSYADSVKGRFTISRDNAKNTVYLQMNSLKPEDTAVYYCNTDVGYGRVWRWRYHGDYWGQGTQVTVSS | low polyreactivity
QVQLEESGGGLDQAGGSLRLSCAASGSIFYYYAMGWYRQAPGKERELVAVIDFSGASTSYAVSVKGRFTISRDNAKITVYLQMNSLKPEDTAVYYCAADRRSKYDYWGQGTQVTVSS | low polyreactivity
QVQLVESGGGLVQAGGSLRLSCAASGLTFPYYVMGWYRQAPGKERELVAAIDDGGGSTYYADSVKGRFTISRDNAKNTVYLQMNSLKPEDTAVYYCAAQVDYLAHYGYWGQGTQVTVSS | low polyreactivity
QFQLVESGGGLVQAGGSLRLSCAASGFTIYIYAKGWYRQAPGKERELVAAINFRGGSTYYADSVKGRFTISGDNAKKTVYLQLNSLKPEDTAVYYCAAVPRTYSGYYYWGQGTQVSVSS | high polyreactivity
QVQLVESGGGLVQAGGSLRLSCAASGFIFRYYAMGWYRQAPGKERELVAAISWSGTRTFYADSVKGRFTISRDNAKNTVYLQMNSLKPEDTAVYYCAAETTGYDSYIQYEYWGQGTQVTVSS | high polyreactivity
QVQLVESGGGLVQAGGSLRLSCASSGSTFRYYAMGWYRPPPGKEREWVAVITSGGSTYYADSVKGRFTISRDNAKNTVSLQMNSLKPEDTAVDYCAAVYAFYVDFDYWGQGTQVTVSS | low polyreactivity
QVQLVESGGGLVQAGGSLRLSCAASGGIFKQYAMGWYRQAPGKERELVAAITWSGGSTYYADSVKGRFTISRDYAKNTVYLQMNSLKPEDTAVYYCAKDYVLFQYVDFQDDDYWGQGTQVTVSS | low polyreactivity
